Test system: E. multilocularis metacestode vesicles
Experiment: Phosphoglucose isomerase (PGI) release assay (damage-marker release) on metacestode vesicles
Type: cell-based, Echinococcus multilocularis
Conditions: overview screen, 10 μM, singlets, 12 days, relative to 0.1 % Triton X-100, DMSO subtracted
Entries and their PGI d12 (relative PGI release) values follow.
The reply should be a number in %, with the unit left off.

Field: example entries. Status: answers known.
NC(=O)c1c(N)sc2c1CCCCC2
3.2439
CCCC(=O)OCCc1ccccc1
-12.5447
COc1cc(C(C)(C)CCCC(C)C)cc(OC)c1OC
-19.1561

Query: Entry under review: `O=C(NCCN1CCCCC1)c1cccc(C(F)(F)F)c1` . Reported PGI d12 (relative PGI release)?
Result: -18.3006

Query: Now consider `Nc1nc2c(ncn2[C@@H]2O[C@H](CO)[C@@H](O)[C@H]2F)c(=O)[nH]1` and answer again.
Result: 49.9588

Query: Same again, this time with `CCCCOC(=O)Nc1cc2nc(C3CCCCC3)[nH]c2cc1N(CC)CC`
Result: 57.0254

Query: What do you get for CC(C)=CCC/C(C)=C\CNCCNC1C2CC3CC(C2)CC1C3 (stereo not shown) ?
Result: -4.6575

Query: `OB1OCc2c1ccc(Cl)c2F` , same question.
Result: -26.1495

Query: Queued: `Cc1cc(C)n2nc(C(=O)NS(=O)(=O)c3c(C)cccc3OC(F)(F)F)nc2n1`
Result: 1.998

Query: Try this compound too: `CCCCc1ccc(-c2cc(C(=O)O)cc(-c3ccc(Cl)cc3)n2)cc1`
Result: -1.795

Query: Then what about the compound `Cl.N=C(N)c1ccc(COc2ccc(Cl)cc2)cc1` ?
Result: 10.4621

Query: // next record `CO[C@@]1(NC(=O)Cc2cccs2)C(=O)N2C(C(=O)O)=C(COC(N)=O)CS[C@@H]21`
Result: -7.289

---

Documented Viability d12 (relative viability) across a set of compounds
System: E. multilocularis metacestode vesicles
Test: Metacestode vesicle viability assay (ATP, CellTiter-Glo)
Type: cell-based, Echinococcus multilocularis
Settings: confirmation screen, 10 μM, triplicates, mean, 12 days
API: value field is a number in %; no unit string.

CCC(C)NCC(O)Cn1c2ccc(Cl)cc2c2cc(Cl)ccc21 (centres unmarked)
94.06
Cc1c(CN(C)C(=O)/C=C/c2cnc3c(c2)C(C)(C)C(=O)N3)oc2ccccc12
76.12
CC(C)N(c1cc(-c2ccccc2)sc1C(=O)O)C(=O)[C@H]1CC[C@H](C)CC1
128.08

Query: Which Viability d12 (relative viability) is reported for this compound? CC1CN(c2ncnc3c2c(-c2ccccc2)cn3-c2ccc(F)cc2)CC(C)O1 (centres unmarked)
Result: 29.29

Query: Entry `C=C(C)n1c(=O)n(Cc2ccccc2C)c2ccccc21` please
Result: 130.19

Query: Continue with `O=C(Nc1cccc(C2=NCCN2)c1)c1ccc(-c2ccc(C(=O)Nc3cccc(C4=NCCN4)c3)cc2)cc1`
Result: 134.53

Query: Proceed to CCc1cc(Cc2cnc(N)nc2N)cc2c1N(C)CCC2C (centres unmarked)
Result: 117.48

Query: Can you check `c1ccc(Cn2c(-c3ccccn3)nc3ccccc32)cc1` next?
Result: 94.29
